- STUDY_TARGET: CIB1 and αIIb interaction (CIB1-GST : F-αIIb peptide) (Homo sapiens, UniProt Q99828)
- Construct: made in house; host or cells: BL-21 plus RIL cells (E. coli)
- TEST_DETAILS: FP assay, 1536-well qHTS format (primary and confirmatory screen)
- Assay type: binding
- PROTOCOL_CONDITIONS: qHTS primary screen of LOPAC/NPACT libraries; read-out: IC50
# Lookup of reported IC50 keyed by entry
Record the value in µM, omitting the unit from your answer.

Here is how some molecules turned out for IC50.
MOLECULE	UNIT_DESCRIPTOR	IC50
C=C1C(=O)O[C@@H]2[C@H]1[C@H](O)C[C@]1(C)[C@@H](O)CC=C(C)[C@@H]21 [NCGC00180848-02]	µM	20
CN1CCN(c2ccc(C(=O)Nc3n[nH]c4ccc(Cc5cc(F)cc(F)c5)cc34)c(NC3CCOCC3)c2)CC1 [NCGC00484067-01]	µM	56.2
COc1cc(N2CCC(N3CCN(C)CC3)CC2)ccc1Nc1ncc(Cl)c(-c2c[nH]c3ccccc23)n1 [NCGC00390583-01]	µM	50.1
CCOC(=O)C1=C(C)NC(C)=C(C(=O)OCC)C1c1c(F)c(F)c(F)c(F)c1F [NCGC00186027-01]	µM	6.3
CCCc1c(OCCCOc2ccc(OCC(=O)O)cc2)ccc(C(C)=O)c1O [NCGC00015599-05]	µM	50.1
O=C(O)CCc1ccc(NCc2cccc3c2CCCN3CCOc2ccccc2)cc1F [NCGC00370998-03]	µM	44.7
C=C1CCC2C(C)(C)CC(O)CC2(C)C1CCC(C)CCOC(=O)CCC(=O)O (stereo not shown) [NCGC00380160-01]	µM	39.8
CCOc1ccc(-c2cc(NC(=O)c3c(F)cccc3F)c(C(=O)O)s2)cc1 [NCGC00386875-01]	µM	14.1

Query :: Consider the molecule CCCCCCCCCCC/C=C\C(C)(C)/C=C\CCCC(=O)O [NCGC00015371-07] and give its measured IC50.
Result :: 56.2

Query :: Consider the molecule O=C(O)/C=C/c1ccc(-c2ccc(O)c(C34CC5CC(CC(C5)C3)C4)c2)cc1 [NCGC00485908-01] and give its measured IC50.
Result :: 44.7

Query :: Consider the molecule C=C1C(=O)O[C@@H]2[C@H]3O[C@]3(C)CC/C=C(/C)CC[C@@H]12 [NCGC00094250-05] and give its measured IC50.
Result :: 10

Query :: Consider the molecule CC(C)(O)CC(=O)NCCn1ccc2ncnc(Nc3ccc(Oc4cccc(C(F)(F)F)c4)c(Cl)c3)c21 [NCGC00346699-06] and give its measured IC50.
Result :: 100

Query :: Consider the molecule NC1(C(=O)O)CCc2cc(C(=O)O)ccc21 (stereo not shown) [NCGC00015024-06] and give its measured IC50.
Result :: 56.2

Query :: Consider the molecule C=C1C(=O)O[C@H]2[C@H]1[C@@H](OC(=O)C(C)CO)C[C@@]1(C)[C@H](O)CCC(=O)[C@H]21 (stereo partly shown) [NCGC00169369-02] and give its measured IC50.
Result :: 22.4

Query :: Consider the molecule O=[N+]([O-])c1cccc2c(Br)n[nH]c12 [NCGC00015143-10] and give its measured IC50.
Result :: 79.4

Query :: Consider the molecule O=C1NCc2c1c1c3ccccc3[nH]c1c1[nH]c3ccccc3c21 [NCGC00261167-01] and give its measured IC50.
Result :: 1.4

====

# Lookup of reported Curve Class (counterscreen) keyed by entry
- STUDY_TARGET: GST-CIB1 : F-scrambled peptide (Homo sapiens)
- Construct: made in house; host or cells: BL-21 plus RIL cells (E. coli)
- TEST_DETAILS: FP scrambled-peptide counter screen, 1536-well format
- Type: binding
- PROTOCOL_CONDITIONS: counterscreen, qHTS curve class; negative sign = inhibitory curve
Keep it simple and answer with nothing but the number.

Here is how some molecules turned out for Curve Class (counterscreen).
MOLECULE	TEST_VALUE
O=C1Nc2cc(Cl)ccc2Nc2cscc21	-3
CCCCC(CC)CNC(=N)NC(=N)NCCCCCCNC(=N)NC(=N)NCC(CC)CCCC.Cl.Cl.Cl (centres unmarked)	3
CN1CCN(c2ccc(Nc3nn4c(=O)c5ccccc5nc4s3)cc2)CC1.O=C(O)C(F)(F)F	-2.4
O=C(O)C(F)(F)F.O=S(=O)(Nc1nccs1)c1ccc(NCc2cc(F)cc(Cl)c2O)cc1	3
O=C1NC(c2ccc(N3CCOCC3)cc2)(c2ccsc2)CC(O)=C1Sc1ccccc1Cl (centres unmarked)	-2.2

Query :: Consider the molecule Cl.O=C1c2c(O)ccc(O)c2C(=O)c2c(NCCNCCO)ccc(NCCNCCO)c21 and give its measured Curve Class (counterscreen).
Result :: -1.1

Query :: Consider the molecule O=C(O)C(F)(F)F.O=S(=O)(Nc1nc2ccccc2s1)c1ccc(NCc2ccc(Br)cc2O)cc1 and give its measured Curve Class (counterscreen).
Result :: 4

Query :: Consider the molecule CC1(C)OB(c2ccc(O)c3ncc(N4CCNCC4)cc23)OC1(C)C.O=C(O)C(F)(F)F and give its measured Curve Class (counterscreen).
Result :: -1.1

====

- STUDY_TARGET: CIB1 and αIIb interaction (CIB1-GST : F-αIIb peptide) (Homo sapiens, UniProt Q99828)
- Construct: made in house; host or cells: BL-21 plus RIL cells (E. coli)
- Sequence (Q99828 1-191): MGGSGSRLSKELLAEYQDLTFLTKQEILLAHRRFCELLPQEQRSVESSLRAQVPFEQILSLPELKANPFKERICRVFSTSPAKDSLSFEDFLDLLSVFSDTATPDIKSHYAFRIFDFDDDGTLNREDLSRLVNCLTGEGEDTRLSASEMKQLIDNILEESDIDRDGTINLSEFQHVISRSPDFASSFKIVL
- TEST_DETAILS: FP assay, 1536-well qHTS format (primary and confirmatory screen)
- Format: binding
- PROTOCOL_CONDITIONS: qHTS primary screen hits, Table S2; negative = inhibition
TEST_READOUT: Efficacy (%)
Record the value in %, omitting the unit from your answer.

Here is how some compounds turned out for Efficacy (%).
COMPOUND	TEST_READOUT	UNIT_DESCRIPTOR	TEST_VALUE
Cc1ccc(S(=O)(=O)Nc2cc([N+](=O)[O-])ccc2C(=O)Nc2nc(-c3ccccc3)cs2)cc1.O=C(O)C(F)(F)F [NCGC00262992-01]	Efficacy (%)	%	-34
COc1cccc2c1C(=O)c1c(O)c3c(c(O)c1C2=O)C[C@@](O)(C(=O)CO)CC3OC1CC(N2CCOC(OC)C2)C(O)C(C)O1 (stereo partly shown) [NCGC00319019-01]	Efficacy (%)	%	-40
Cc1cc2nc3ccc(N(C)C)cc3[s+]c2cc1N.Cl.[Cl-] [NCGC00181775-02]	Efficacy (%)	%	-38
Cc1ccc(OCCn2c(CCNC(=O)c3ccsc3)nc3ccccc32)cc1.O=C(O)C(F)(F)F [NCGC00238707-01]	Efficacy (%)	%	-22

Query :: Lookup: Efficacy (%) / CIB1 and αIIb interaction (CIB1-GST : F-αIIb peptide) (Homo sapiens, UniProt Q99828) / O=C(c1cc(O)c(O)c(O)c1)c1ccc(O)c(O)c1O [NCGC00249050-02]
Result :: -42

Query :: Lookup: Efficacy (%) / CIB1 and αIIb interaction (CIB1-GST : F-αIIb peptide) (Homo sapiens, UniProt Q99828) / CC(=O)[C@]1(O)Cc2c(O)c3c(c(O)c2[C@@H](O[C@H]2C[C@H](N)[C@H](O)[C@H](C)O2)C1)C(=O)c1ccccc1C3=O [NCGC00093976-06]
Result :: -86

Query :: Lookup: Efficacy (%) / CIB1 and αIIb interaction (CIB1-GST : F-αIIb peptide) (Homo sapiens, UniProt Q99828) / CCc1c(-c2ccccc2)c(-c2ccccc2)nn1-c1ccccc1-c1cccc(OCC(=O)O)c1 [NCGC00387254-02]
Result :: -30

Query :: Lookup: Efficacy (%) / CIB1 and αIIb interaction (CIB1-GST : F-αIIb peptide) (Homo sapiens, UniProt Q99828) / COc1cccc(S(=O)(=O)Nc2cnccc2C(=O)Nc2nc(-c3ccccc3)cs2)c1.O=C(O)C(F)(F)F [NCGC00344906-01]
Result :: -33

Query :: Lookup: Efficacy (%) / CIB1 and αIIb interaction (CIB1-GST : F-αIIb peptide) (Homo sapiens, UniProt Q99828) / O=S1(=O)OC(c2ccc(O)cc2)(c2ccc(O)cc2)c2ccccc21 [NCGC00013109-03]
Result :: -72

Query :: Lookup: Efficacy (%) / CIB1 and αIIb interaction (CIB1-GST : F-αIIb peptide) (Homo sapiens, UniProt Q99828) / O=C(Nc1ccc2ccccc2c1)Nc1nnc(-c2ccccn2)s1.O=C(O)C(F)(F)F [NCGC00188528-01]
Result :: -30

Query :: Lookup: Efficacy (%) / CIB1 and αIIb interaction (CIB1-GST : F-αIIb peptide) (Homo sapiens, UniProt Q99828) / COc1cccc2nc(-c3cccs3)nc(NN3C(=O)C=C(C)C3=O)c12 [NCGC00161703-02]
Result :: -24

Query :: Lookup: Efficacy (%) / CIB1 and αIIb interaction (CIB1-GST : F-αIIb peptide) (Homo sapiens, UniProt Q99828) / Fc1ccc(C(c2ccc(F)cc2)N2CCN(C/C=C/c3ccccc3)CC2)cc1 [NCGC00018102-06]
Result :: -167

Query :: Lookup: Efficacy (%) / CIB1 and αIIb interaction (CIB1-GST : F-αIIb peptide) (Homo sapiens, UniProt Q99828) / CCCCCCCCCCCCCCCC[n+]1ccccc1.[Br-] [NCGC00091023-06]
Result :: -31

Query :: Lookup: Efficacy (%) / CIB1 and αIIb interaction (CIB1-GST : F-αIIb peptide) (Homo sapiens, UniProt Q99828) / COc1cccc(-c2csc(NC(=O)c3ccncc3NS(=O)(=O)c3ccc(C)cc3)n2)c1.O=C(O)C(F)(F)F [NCGC00319006-01]
Result :: -58
